Target: AMP-activated protein kinase, AMPK (Homo sapiens) (UniProt P54646+O43741+P54619+Q9UGJ0+Q9Y478+Q13131+Q9UGI9)
Experiment: AMP-dependent Kinase enzyme assay. An in vitro enzyme assay that detects ADP turnover that is directly proportional to AMPK activity. This uses naive AMPK that is activated during the assay with MK-8722
Type: functional
Set-up: scale not given: direction of the effect not stated beside the values
Conditions: 30 µM
For each record, write down the corresponding Percent Effect.
Answers are plain numbers, in %.

[
  {
    "compound": "NC(=O)COc1ccc(CN2CCC3(CC2)[C@H](O)C[C@@H]3O)cc1Cl",
    "Percent Effect, %": 8.11
  },
  {
    "compound": "O=C(NCCN1CCNC1=O)c1cnc(-c2cccnc2)nc1",
    "Percent Effect, %": 6.47
  },
  {
    "compound": "O=S(=O)(NC1CCCOC1)c1ccc(C(F)(F)F)nc1 (centres undefined)",
    "Percent Effect, %": 7.35
  }
]

Now for another entry.
Form field Percent Effect, entry c1ccc(-c2cc(CN3CCCCCC3c3ccco3)on2)nc1 (centres undefined) : 8.41
